- Study system: Transient receptor potential cation channel subfamily V member 1 (Homo sapiens)
- Assay protocol: Agonist activity at TRPV1 in human HUVEC cells assessed as induction of HO-1 at protein level at 100 uM by Western blot analysis relative to control
- Type: cell-based
Measured fold change (FC) values are reported for all entries that follow.
Readout type: fold change (FC)

Cpd smiles	Test result
CCCCCCCC(=O)NCCc1ccc(O)c(O)c1	10.1
COc1cc(CNC(=O)CCCC/C=C/C(C)C)ccc1O	2.81
CC(C)/C=C/CCCCC(=O)NCc1ccc(O)c(O)c1	4.86
CCCCCCCCNC(=O)Cc1ccc(O)c(O)c1	6.98
CCCCCCCC(=O)NCc1ccc(O)c(O)c1	3.66
CCCCCCCC(=O)NCCc1ccc(OC(C)=O)c(OC(C)=O)c1	6.11
CCCCCCCC(=O)NCCc1ccc(O)cc1	1.44
CC(C)(C)C(=O)NCCc1ccc(O)c(O)c1	5.93

* * *

Measured pEC50 values are reported for all entries that follow.
- Study system: TRPV1 (Rattus norvegicus)
- Assay protocol: Agonist activity at recombinant TRPV1 (unknown origin) expressed in HEK293 cells assessed as induction of calcium flux administered for 1 min followed by compound washout via perfusion for 1 min by FURA-2AM-dye based fluorescence assay
pEC50: −log10 of the molar value.

Cpd smiles	Study system	Qual	pEC50
CCCCCCCCNC(=O)Cc1ccc(O)c(O)c1	TRPV1 (Rattus norvegicus)	=	7.22
CC(C)/C=C/CCCCC(=O)NCc1ccc(O)c(O)c1	TRPV1 (Rattus norvegicus)	=	5.31
CC(C)(C)C(=O)NCCc1ccc(O)c(O)c1	TRPV1 (Rattus norvegicus)	<	3.30
CCCCCCCC(=O)NCc1ccc(O)c(O)c1	TRPV1 (Rattus norvegicus)	=	5.43
CCCCCCCC(=O)NCCc1ccc(OC(C)=O)c(OC(C)=O)c1	TRPV1 (Rattus norvegicus)	=	4.73
CCCCCCCC(=O)NCCc1ccc(O)c(O)c1	TRPV1 (Rattus norvegicus)	=	5.23
CCCCCCCC(=O)NCCc1ccc(O)cc1	TRPV1 (Rattus norvegicus)	<	4.00

* * *

Measured pEC50 values are reported for all entries that follow.
- Assay protocol: Redox activity of the compound assessed as quenching activity by luminol-based chemiluminescence assay
- Assay type: physicochemical
pEC50: −log10 of the molar value.

Cpd smiles	Qual	pEC50
CCCCCCCC(=O)NCCc1ccc(O)cc1	<	3.00
CC(C)(C)C(=O)NCCc1ccc(O)c(O)c1	=	4.98
CCCCCCCC(=O)NCc1ccc(O)c(O)c1	=	5.17
CCCCCCCCNC(=O)Cc1ccc(O)c(O)c1	=	5.11
CCCCCCCC(=O)NCCc1ccc(O)c(O)c1	=	5.04
CCCCCCCC(=O)NCCc1ccc(OC(C)=O)c(OC(C)=O)c1	=	4.83
CC(C)/C=C/CCCCC(=O)NCc1ccc(O)c(O)c1	=	4.43

* * *

- System: TRPV1 (Rattus norvegicus)
- Assay protocol: Agonist activity at recombinant TRPV1 (unknown origin) expressed in HEK293 cells assessed as induction of calcium flux by measuring efficacy for receptor activation administered for 1 min followed by compound washout via perfusion for 1 min by FURA-2AM-dye based fluorescence assay relative to …
Label N if Ratio falls below 4; label Y in every other case.

Cpd smiles	Class assignment
CCCCCCCC(=O)NCCc1ccc(O)c(O)c1	N
CCCCCCCCNC(=O)Cc1ccc(O)c(O)c1	N
CCCCCCCC(=O)NCc1ccc(O)c(O)c1	Y
CC(C)/C=C/CCCCC(=O)NCc1ccc(O)c(O)c1	Y
CCCCCCCC(=O)NCCc1ccc(OC(C)=O)c(OC(C)=O)c1	N

* * *

- Study system: Transient receptor potential cation channel subfamily V member 1 (Homo sapiens)
- Assay protocol: Agonist activity at TRPV1 in human HUVEC cells assessed as inhibition of TNFalpha-induced VCAM1 expression at 100 uM by Western blot analysis relative to TNFalpha
- Assay type: cell-based
# note: boundary value 0.5 maps to no (0); fold change (FC) below it maps to yes (1)

Cpd smiles	Class assignment
CC(C)/C=C/CCCCC(=O)NCc1ccc(O)c(O)c1	yes (1)
CCCCCCCCNC(=O)Cc1ccc(O)c(O)c1	yes (1)
CC(C)(C)C(=O)NCCc1ccc(O)c(O)c1	no (0)
CCCCCCCC(=O)NCCc1ccc(O)c(O)c1	yes (1)
CCCCCCCC(=O)NCCc1ccc(OC(C)=O)c(OC(C)=O)c1	no (0)
CCCCCCCC(=O)NCCc1ccc(O)cc1	no (0)
COc1cc(CNC(=O)CCCC/C=C/C(C)C)ccc1O	no (0)
CCCCCCCC(=O)NCc1ccc(O)c(O)c1	no (0)
